assay: Metabolic stability in pooled mouse liver microsomes; format: in vitro ADME; conditions: mouse liver microsomes 0.5 mg/mL, 1 uM, NADPH, 37° C.
ASSAY_METRIC: Metabolic Stability mouse (30 minutes), percent of pro-drug metabolized to riluzole (%)
Please give a number only; it is taken to be in %.

Record excerpt, results attached:
# STRUCTURE, OUTPUT_UNIT, VALUE
measured = [
    ("O=C(CCC(=O)Nc1nc2ccc(OC(F)(F)F)cc2s1)NCc1cccnc1", "%", 0),
    ("N[C@H](COCc1ccccc1)C(=O)Nc1nc2ccc(OC(F)(F)F)cc2s1", "%", 24),
    ("CC(C)COC(=O)Nc1nc2ccc(OC(F)(F)F)cc2s1", "%", 23),
    ("NCCCCC(=O)Nc1nc2ccc(OC(F)(F)F)cc2s1", "%", 66),
    ("O=C(Cc1ccccc1[N+](=O)[O-])Nc1nc2ccc(OC(F)(F)F)cc2s1", "%", 59),
    ("CNCCCCC(=O)Nc1nc2ccc(OC(F)(F)F)cc2s1", "%", 78),
    ("C[C@@H](N)C(=O)Nc1nc2ccc(OC(F)(F)F)cc2s1", "%", 10),
    ("CN(C)CCOC(=O)Nc1nc2ccc(OC(F)(F)F)cc2s1", "%", 13),
]

// lookup Metabolic Stability mouse (30 minutes), percent of pro-drug metabolized to riluzole for "CCCOC(=O)Nc1nc2ccc(OC(F)(F)F)cc2s1"
15

# query: Metabolic Stability mouse (30 minutes), percent of pro-drug metabolized to riluzole of entry "CN(C)CCCOC(=O)Nc1nc2ccc(OC(F)(F)F)cc2s1"
71

Can you look up the measured Metabolic Stability mouse (30 minutes), percent of pro-drug metabolized to riluzole of "COC(=O)Nc1nc2ccc(OC(F)(F)F)cc2s1" for me?
10

# query: Metabolic Stability mouse (30 minutes), percent of pro-drug metabolized to riluzole of entry "CC(C)[C@H](N)C(=O)Nc1nc2ccc(OC(F)(F)F)cc2s1"
40

For "N[C@@H](COCc1ccccc1)C(=O)Nc1nc2ccc(OC(F)(F)F)cc2s1" , what is its reported Metabolic Stability mouse (30 minutes), percent of pro-drug metabolized to riluzole?
0

====

experiment: Metabolic stability in pooled mouse liver microsomes; type: in vitro ADME; settings: mouse liver microsomes 0.5 mg/mL, 1 uM, NADPH, 37° C.
Lab note: compare Metabolic Stability mouse (30 minutes), percent of pro-drug metabolized to riluzole against 20%. Equal or greater, write Yes. Smaller, write No.

# COMPOUND, ASSIGNED_CLASS
rows = [
    ("COC(=O)CCC(=O)Nc1nc2ccc(OC(F)(F)F)cc2s1 [Cpd 21]", "Yes"),
    ("N[C@@H](Cc1ccccc1)C(=O)Nc1nc2ccc(OC(F)(F)F)cc2s1 [Cpd 9]", "No"),
    ("O=C(O)CCC(=O)Nc1nc2ccc(OC(F)(F)F)cc2s1 [Cpd 20]", "Yes"),
    ("Nc1ccc(C(=O)Nc2nc3ccc(OC(F)(F)F)cc3s2)cc1 [Cpd 28]", "Yes"),
    ("CCOC(=O)Nc1nc2ccc(OC(F)(F)F)cc2s1 [Cpd 13]", "No"),
    ("CCCCOC(=O)Nc1nc2ccc(OC(F)(F)F)cc2s1 [Cpd 15]", "Yes"),
    ("CC(C)(C)OC(=O)CCC(=O)Nc1nc2ccc(OC(F)(F)F)cc2s1 [Cpd 22]", "No"),
    ("C[C@H](N)C(=O)Nc1nc2ccc(OC(F)(F)F)cc2s1 [Cpd 7]", "No"),
    ("NCC(=O)Nc1nc2ccc(OC(F)(F)F)cc2s1 [Cpd 1]", "No"),
]

Now for another entry.
Form field: Metabolic Stability mouse (30 minutes), percent of pro-drug metabolized to riluzole at least 20%? Entry: N[C@H](Cc1ccccc1)C(=O)Nc1nc2ccc(OC(F)(F)F)cc2s1 [Cpd 4]
No
